From: BigSolDB 2.1

Conditions: in n-butanol, 298.15 K
property-label: solubility (mole fraction)

Req: Using known records, supply solubility (mole fraction) for `Cc1cc(C)[nH]n1`
Resp: 0.187

====

Settings: in acetonitrile, 295.65 K
property-label: solubility (mole fraction)

Req: Using known records, supply solubility (mole fraction) for `Cc1cc(C)[nH]n1`
Resp: 0.0508

====

Settings: in toluene, 303.15 K
property-label: solubility (mole fraction)
Answers are plain numbers.

Req: Using known records, supply solubility (mole fraction) for `Cc1cc(C)[nH]n1`
Resp: 0.0979

====

Settings: in acetonitrile, 303.15 K
property-label: solubility (mole fraction)
Answers are plain numbers.

Req: Using known records, supply solubility (mole fraction) for `Cc1cc(C)[nH]n1`
Resp: 0.0722
